# System: 653999-131-R-J2-PDC complex spheroids, growth % test/control;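 note: spheroids exposed to agents for seven days; 100% = DMSO vehicle control viability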
# method.description: Anticancer human tumor 653999-131-R-J2-PDC patient-derived lung adenocarcinoma cell line growth inhibition [AhR]
# condition.label: second compound 3.16 µM; first compound 0.316 µM; stronger effect = lower value
Field: label. Allowed values: 1 (yes) (viability, T/C < 80%) or 0 (no) (viability, T/C >= 80%).

Answered cases to consult:
In: Please indicate whether the reported viability, T/C of O=C(c1cc(Cc2n[nH]c(=O)c3ccccc23)ccc1F)N1CCN(C(=O)C2CC2)CC1 + CC(CO)NC(=O)c1cc(-c2ccc(Cl)cc2)nn(-c2cnn(C)c2)c1=O is strictly below 80%.
Out: 0 (no)

In: Please indicate whether the reported viability, T/C of Nc1ccn(C2OC(CO)C(O)C2(F)F)c(=O)n1 (configuration not stated) + Cc1ccccc1N=Nc1ccc(NC(=O)c2ccnn2C)c(C)c1 is strictly below 80%.
Out: 1 (yes)

In: Please indicate whether the reported viability, T/C of COc1cc(C2c3cc4c(cc3C(OC3OC5COC(C)OC5C(O)C3O)C3COC(=O)C23)OCO4)cc(OC)c1O (configuration not stated) + CC(CO)NC(=O)c1cc(-c2ccc(Cl)cc2)nn(-c2cnn(C)c2)c1=O is strictly below 80%.
Out: 1 (yes)

In: Please indicate whether the reported viability, T/C of COc1cc(C2c3cc4c(cc3C(OC3OC5COC(C)OC5C(O)C3O)C3COC(=O)C23)OCO4)cc(OC)c1O (configuration not stated) + Cc1cncc(-c2nc(NCCc3c[nH]c4ccccc34)c3ncn(C(C)C)c3n2)c1 is strictly below 80%.
Out: 1 (yes)

In: Please indicate whether the reported viability, T/C of COc1ccc([C@@H](O)c2cc(-c3ncnc4cc(N5CCOCC5)ccc34)c(F)cc2Cl)nn1 + CC(CO)NC(=O)c1cc(-c2ccc(Cl)cc2)nn(-c2cnn(C)c2)c1=O is strictly below 80%.
Out: 0 (no)

In: Please indicate whether the reported viability, T/C of O=C(C=Cc1cccc(S(=O)(=O)Nc2ccccc2)c1)NO + CC(CO)NC(=O)c1cc(-c2ccc(Cl)cc2)nn(-c2cnn(C)c2)c1=O is strictly below 80%.
Out: 0 (no)

In: Please indicate whether the reported viability, T/C of CC(C)c1c(-c2ccccc2)nc2c(C#N)c[nH]n2c1=O + Cc1cncc(-c2nc(NCCc3c[nH]c4ccccc34)c3ncn(C(C)C)c3n2)c1 is strictly below 80%.
Out: 0 (no)

In: Please indicate whether the reported viability, T/C of COc1cc(C2c3cc4c(cc3C(OC3OC5COC(C)OC5C(O)C3O)C3COC(=O)C23)OCO4)cc(OC)c1O (configuration not stated) + Cc1ccccc1N=Nc1ccc(NC(=O)c2ccnn2C)c(C)c1 is strictly below 80%.
Out: 1 (yes)

Next:
In: Please indicate whether the reported viability, T/C of NS(=O)(=O)OCC1CC(n2ccc3c(NC4CCc5ccccc54)ncnc32)CC1O (configuration not stated) + CC(CO)NC(=O)c1cc(-c2ccc(Cl)cc2)nn(-c2cnn(C)c2)c1=O is strictly below 80%.
Out: 0 (no)

In: Please indicate whether the reported viability, T/C of Nc1ncn(C2CC(O)C(CO)O2)c(=O)n1 (configuration not stated) + Cc1ccccc1N=Nc1ccc(NC(=O)c2ccnn2C)c(C)c1 is strictly below 80%.
Out: 0 (no)

In: Please indicate whether the reported viability, T/C of Nc1ccccc1NC(=O)c1ccc(CNC(=O)OCc2cccnc2)cc1 + CC(CO)NC(=O)c1cc(-c2ccc(Cl)cc2)nn(-c2cnn(C)c2)c1=O is strictly below 80%.
Out: 0 (no)
